Target: Cbl (aa49-434) (Homo sapiens)
Construct: Cbl (aa49-434, in-house); made in house
Sequence (P22681 49-434): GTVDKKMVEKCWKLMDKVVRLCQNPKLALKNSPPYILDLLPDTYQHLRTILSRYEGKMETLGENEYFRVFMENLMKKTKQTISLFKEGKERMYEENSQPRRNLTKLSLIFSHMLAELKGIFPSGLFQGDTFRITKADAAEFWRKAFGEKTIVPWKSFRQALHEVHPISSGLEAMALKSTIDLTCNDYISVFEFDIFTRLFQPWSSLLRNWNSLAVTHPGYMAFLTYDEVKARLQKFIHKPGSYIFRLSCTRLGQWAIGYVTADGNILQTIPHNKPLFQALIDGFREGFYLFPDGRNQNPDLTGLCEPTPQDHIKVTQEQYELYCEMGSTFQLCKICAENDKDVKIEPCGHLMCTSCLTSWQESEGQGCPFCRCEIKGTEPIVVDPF
Assay: Co-expressed Cbl with BirA biochemical assay (CBL/E2-Ub binding, HTRF)
Details: 0.6 nM Cbl co-expressed with BirA, read-out: co-express CBL/E2-Ub-binding assay IC50
Text: The assay in the absence of a Cbl-b/Cbl inhibitor, where phosphorylation of Cbl-b/Cbl by the Src kinase allows UbcH5B-Ub to bind to Cbl-b/Cbl and brings the Bodipy-Fluorescein tagged ubiquitin in proximity to the streptavidin-terbium bound to the N-terminal biotinylated Avi-tagged Cbl-b/Cbl. […] The lack of a FRET signal indicates Cbl-b/Cbl is inhibited by the Cbl-b/Cbl inhibitor.
One threshold, 0.01 µM, splits the recorded IC50 values: lower ones are true (1), equal or higher ones are false (0).

Query block: Please check: IC50 for Cn1cnnc1[C@]1(c2cccc(NC(=O)c3cc(CNC4(C)CCC4)c4c(n3)C(C)(C)CN4)c2)C[C@H](CC#N)C1 [Compound C21] , strictly under 0.01 µM or not?
Result block: false (0)

Query block: Please check: IC50 for CC(C)CNCc1cc(C(=O)Nc2cncc([C@]3(c4nncn4C)C[C@@H](C)C3)c2)nc2cc[nH]c12 [Compound B2] , strictly under 0.01 µM or not?
Result block: true (1)

Query block: Please check: IC50 for Cn1cnnc1[C@]1(c2cccc(NC(=O)c3cc(CNCC4CCC4)c4c(n3)C(C)(C)CC4)c2)C[C@H](C)C1 [Compound C57] , strictly under 0.01 µM or not?
Result block: true (1)

Query block: Please check: IC50 for C[C@H]1CCCN(Cc2cc(C(=O)Nc3cccc([C@]4(c5nncn5C)C[C@@H](CC#N)C4)c3)nc3c(Cl)c[nH]c23)C1 [Compound B16] , strictly under 0.01 µM or not?
Result block: false (0)

Query block: Please check: IC50 for C[C@H]1CCCN(Cc2cc(C(=O)Nc3cccc([C@]4(c5nncn5C)C[C@@H](CC#N)C4)c3)nc3sccc23)C1 [Compound B18] , strictly under 0.01 µM or not?
Result block: false (0)

Query block: Please check: IC50 for C[C@H]1CCCN(Cc2cc(C(=O)Nc3cccc([C@]4(c5nncn5C)C[C@@H](CC#N)C4)c3)n3nccc3c2)C1 [Compound A11] , strictly under 0.01 µM or not?
Result block: false (0)

New cases:
Query block: Please check: IC50 for C[C@H](NCc1cc(C(=O)Nc2cccc([C@]3(c4nncn4C)C[C@@H](C)C3)c2)nc2c(F)c[nH]c12)C1CC1 [Compound B37] , strictly under 0.01 µM or not?
Result block: true (1)

----------
molecules and their reported pIC50
Molecular target: Cbl-b (aa36-427) (Homo sapiens, UniProt Q13191)
Construct: Cbl-b (aa36-427, in-house); made in house
Sequence (Q13191 36-427): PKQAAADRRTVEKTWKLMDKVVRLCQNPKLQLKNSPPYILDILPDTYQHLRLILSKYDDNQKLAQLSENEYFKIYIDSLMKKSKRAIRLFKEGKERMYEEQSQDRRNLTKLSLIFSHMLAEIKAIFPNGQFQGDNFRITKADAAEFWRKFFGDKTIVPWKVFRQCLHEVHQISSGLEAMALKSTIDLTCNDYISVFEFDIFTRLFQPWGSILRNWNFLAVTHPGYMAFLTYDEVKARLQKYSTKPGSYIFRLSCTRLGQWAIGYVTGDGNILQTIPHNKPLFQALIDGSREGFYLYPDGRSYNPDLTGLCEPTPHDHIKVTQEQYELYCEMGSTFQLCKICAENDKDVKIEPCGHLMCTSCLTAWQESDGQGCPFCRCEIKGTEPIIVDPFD
Experiment: Co-expressed Cbl-b with BirA biochemical assay (CBLB/E2-Ub binding, HTRF)
Conditions: 0.6 nM Cbl-b co-expressed with BirA, HTRF; read-out: co-express CBLB/E2-Ub-binding assay IC50
Please note pIC50 is a logarithmic value: minus log10 of concentration in mol/L. Answer with that number alone.

Query block: Complete the entry with pIC50 for CC(C)CNCc1cc(C(=O)Nc2cccc([C@]3(c4nncn4C)C[C@@H](CC#N)C3)c2)nc2c1NCC2(C)C [Compound C32]
Result block: 8.73

New cases:
Query block: Complete the entry with pIC50 for Cn1cnnc1[C@]1(c2cccc(NC(=O)c3cc(CNC4CCCCCC4)c4c(n3)C(C)(C)CC4)c2)C[C@H](CC#N)C1 [Compound C54]
Result block: 8.89

Query block: Complete the entry with pIC50 for CC(C)CNCc1cc(C(=O)Nc2cccc([C@]3(c4nncn4C)C[C@@H](CC#N)C3)c2)nc2cc[nH]c12 [Compound B29]
Result block: 8.92

Query block: Complete the entry with pIC50 for Cn1cnnc1[C@]1(c2cccc(NC(=O)c3cc(CNC4(C)CC4)cc4ccnn34)c2)C[C@H](C)C1 [Compound A91]
Result block: 9.22

Query block: Complete the entry with pIC50 for Cn1cnnc1[C@]1(c2cncc(NC(=O)c3cc(CNC4(C)CCC4)c4[nH]ccc4n3)c2)C[C@H](C)C1 [Compound B50]
Result block: 8.82
